Tested on: NCI-H1792
ASSAY: relative viability (nuclei count vs DMSO), 5 days (fraction); higher = more cells survive
MEASUREMENT PARAMETERS: first compound 0.5 µM
ENDPOINT LABEL: relative viability

COMPOUND	SYSTEM TESTED	READOUT VALUE
CC1(C)CCC(c2ccc(Cl)cc2)=C(CN2CCN(c3ccc(C(=O)NS(=O)(=O)c4ccc(N[C@H](CCN5CCOCC5)CSc5ccccc5)c(S(=O)(=O)C(F)(F)F)c4)cc3)CC2)C1 [Navitoclax] + N=C(N)NC(=N)NCCc1ccccc1 [Phenformin] (partner 250 µM)	NCI-H1792	0.112
CC1(C)CCC(c2ccc(Cl)cc2)=C(CN2CCN(c3ccc(C(=O)NS(=O)(=O)c4ccc(N[C@H](CCN5CCOCC5)CSc5ccccc5)c(S(=O)(=O)C(F)(F)F)c4)cc3)CC2)C1 [Navitoclax] + Nc1ncn([C@H]2C[C@H](O)[C@@H](CO)O2)c(=O)n1 [Decitabine] (partner 2 µM)	NCI-H1792	0.447
CC1(C)CCC(c2ccc(Cl)cc2)=C(CN2CCN(c3ccc(C(=O)NS(=O)(=O)c4ccc(N[C@H](CCN5CCOCC5)CSc5ccccc5)c(S(=O)(=O)C(F)(F)F)c4)cc3)CC2)C1 [Navitoclax] + CS(=O)(=O)N1CCN(Cc2cc3nc(-c4cccc5[nH]ncc45)nc(N4CCOCC4)c3s2)CC1 [Pictilisib] (partner 1 µM)	NCI-H1792	0.29
CC1(C)CCC(c2ccc(Cl)cc2)=C(CN2CCN(c3ccc(C(=O)NS(=O)(=O)c4ccc(N[C@H](CCN5CCOCC5)CSc5ccccc5)c(S(=O)(=O)C(F)(F)F)c4)cc3)CC2)C1 [Navitoclax] + COc1cccc2cc(-c3nc([C@H]4CC[C@H](C(=O)O)CC4)n4ncnc(N)c34)[nH]c12 [OSI-027] (partner 0.5 µM)	NCI-H1792	0.705
CC1(C)CCC(c2ccc(Cl)cc2)=C(CN2CCN(c3ccc(C(=O)NS(=O)(=O)c4ccc(N[C@H](CCN5CCOCC5)CSc5ccccc5)c(S(=O)(=O)C(F)(F)F)c4)cc3)CC2)C1 [Navitoclax] + Nc1nc2[nH]cc(CCc3ccc(C(=O)N[C@@H](CCC(=O)O)C(=O)O)cc3)c2c(=O)[nH]1 [Pemetrexed] (partner 0.2 µM)	NCI-H1792	0.738
CC1(C)CCC(c2ccc(Cl)cc2)=C(CN2CCN(c3ccc(C(=O)NS(=O)(=O)c4ccc(N[C@H](CCN5CCOCC5)CSc5ccccc5)c(S(=O)(=O)C(F)(F)F)c4)cc3)CC2)C1 [Navitoclax] + C[C@@H](Oc1cc(-c2cnn(C3CCNCC3)c2)cnc1N)c1c(Cl)ccc(F)c1Cl [Crizotinib] (partner 1 µM)	NCI-H1792	0.946
CC1(C)CCC(c2ccc(Cl)cc2)=C(CN2CCN(c3ccc(C(=O)NS(=O)(=O)c4ccc(N[C@H](CCN5CCOCC5)CSc5ccccc5)c(S(=O)(=O)C(F)(F)F)c4)cc3)CC2)C1 [Navitoclax] + O=C(c1cc(Cc2n[nH]c(=O)c3ccccc23)ccc1F)N1CCN(C(=O)C2CC2)CC1 [Olaparib] (partner 8 µM)	NCI-H1792	0.326
CC1(C)CCC(c2ccc(Cl)cc2)=C(CN2CCN(c3ccc(C(=O)NS(=O)(=O)c4ccc(N[C@H](CCN5CCOCC5)CSc5ccccc5)c(S(=O)(=O)C(F)(F)F)c4)cc3)CC2)C1 [Navitoclax] + CCNC(=O)c1noc(-c2cc(C(C)C)c(O)cc2O)c1-c1ccc(CN2CCOCC2)cc1 [Luminespib] (partner 0.01 µM)	NCI-H1792	0.527

----------
Tested on: NCI-H1651
ASSAY: relative viability (nuclei count vs DMSO), 5 days (fraction); higher = more cells survive
MEASUREMENT PARAMETERS: first compound 0.01 µM
ENDPOINT LABEL: relative viability

MOLECULE	READOUT VALUE
NC(=O)Nc1cc(-c2cccc(F)c2)sc1C(=O)N[C@H]1CCCNC1 [AZD7762] + Nc1nc2[nH]cc(CCc3ccc(C(=O)N[C@@H](CCC(=O)O)C(=O)O)cc3)c2c(=O)[nH]1 [Pemetrexed] (partner 0.2 µM)	0.624
NC(=O)Nc1cc(-c2cccc(F)c2)sc1C(=O)N[C@H]1CCCNC1 [AZD7762] + Cc1nc(NC(=O)N2CCC[C@H]2C(N)=O)sc1-c1ccnc(C(C)(C)C(F)(F)F)c1 [Alpelisib] (partner 2 µM)	0.918
NC(=O)Nc1cc(-c2cccc(F)c2)sc1C(=O)N[C@H]1CCCNC1 [AZD7762] + CC(=O)c1c(C)c2cnc(Nc3ccc(N4CCNCC4)cn3)nc2n(C2CCCC2)c1=O [Palbociclib] (partner 0.5 µM)	0.574
NC(=O)Nc1cc(-c2cccc(F)c2)sc1C(=O)N[C@H]1CCCNC1 [AZD7762] + CC(C)C[C@H](NC(=O)[C@H](Cc1ccccc1)NC(=O)c1cnccn1)B(O)O [Bortezomib] (partner 0.002 µM)	0.945
NC(=O)Nc1cc(-c2cccc(F)c2)sc1C(=O)N[C@H]1CCCNC1 [AZD7762] + CCNC(=O)c1noc(-c2cc(C(C)C)c(O)cc2O)c1-c1ccc(CN2CCOCC2)cc1 [Luminespib] (partner 0.01 µM)	0.98
NC(=O)Nc1cc(-c2cccc(F)c2)sc1C(=O)N[C@H]1CCCNC1 [AZD7762] + C[C@]1(O)C[C@@H](c2nc(-c3ccc4ccc(-c5ccccc5)nc4c3)c3c(N)nccn32)C1 [Linsitinib] (partner 1 µM)	1.03
NC(=O)Nc1cc(-c2cccc(F)c2)sc1C(=O)N[C@H]1CCCNC1 [AZD7762] + Cc1cc(Nc2cc(N3CCN(C)CC3)nc(Sc3ccc(NC(=O)C4CC4)cc3)n2)n[nH]1 [Tozasertib] (partner 0.1 µM)	0.788
NC(=O)Nc1cc(-c2cccc(F)c2)sc1C(=O)N[C@H]1CCCNC1 [AZD7762] + C[C@@H](Oc1cc(-c2cnn(C3CCNCC3)c2)cnc1N)c1c(Cl)ccc(F)c1Cl [Crizotinib] (partner 1 µM)	1

----------
Test system: NCI-H1666
ASSAY: relative viability (nuclei count vs DMSO), 5 days (fraction); higher = more cells survive
MEASUREMENT PARAMETERS: first compound 0.05 µM
Reported relative viability is given for each of the following compounds.

COMPOUND	SYSTEM TESTED	relative viability
CC1(C)CCC(c2ccc(Cl)cc2)=C(CN2CCN(c3ccc(C(=O)NS(=O)(=O)c4ccc(N[C@H](CCN5CCOCC5)CSc5ccccc5)c(S(=O)(=O)C(F)(F)F)c4)cc3)CC2)C1 [Navitoclax] + CC(=O)c1c(C)c2cnc(Nc3ccc(N4CCNCC4)cn3)nc2n(C2CCCC2)c1=O [Palbociclib] (partner 0.5 µM)	NCI-H1666	0.666
CC1(C)CCC(c2ccc(Cl)cc2)=C(CN2CCN(c3ccc(C(=O)NS(=O)(=O)c4ccc(N[C@H](CCN5CCOCC5)CSc5ccccc5)c(S(=O)(=O)C(F)(F)F)c4)cc3)CC2)C1 [Navitoclax] + O=C(c1cc(Cc2n[nH]c(=O)c3ccccc23)ccc1F)N1CCN(C(=O)C2CC2)CC1 [Olaparib] (partner 8 µM)	NCI-H1666	0.683
CC1(C)CCC(c2ccc(Cl)cc2)=C(CN2CCN(c3ccc(C(=O)NS(=O)(=O)c4ccc(N[C@H](CCN5CCOCC5)CSc5ccccc5)c(S(=O)(=O)C(F)(F)F)c4)cc3)CC2)C1 [Navitoclax] + Cc1nc(NC(=O)N2CCC[C@H]2C(N)=O)sc1-c1ccnc(C(C)(C)C(F)(F)F)c1 [Alpelisib] (partner 2 µM)	NCI-H1666	1.06
CC1(C)CCC(c2ccc(Cl)cc2)=C(CN2CCN(c3ccc(C(=O)NS(=O)(=O)c4ccc(N[C@H](CCN5CCOCC5)CSc5ccccc5)c(S(=O)(=O)C(F)(F)F)c4)cc3)CC2)C1 [Navitoclax] + O=C(CCCCCCC(=O)Nc1ccccc1)NO [Vorinostat] (partner 1 µM)	NCI-H1666	1.03
CC1(C)CCC(c2ccc(Cl)cc2)=C(CN2CCN(c3ccc(C(=O)NS(=O)(=O)c4ccc(N[C@H](CCN5CCOCC5)CSc5ccccc5)c(S(=O)(=O)C(F)(F)F)c4)cc3)CC2)C1 [Navitoclax] + Cc1cc(Nc2cc(N3CCN(C)CC3)nc(Sc3ccc(NC(=O)C4CC4)cc3)n2)n[nH]1 [Tozasertib] (partner 0.1 µM)	NCI-H1666	0.61
CC1(C)CCC(c2ccc(Cl)cc2)=C(CN2CCN(c3ccc(C(=O)NS(=O)(=O)c4ccc(N[C@H](CCN5CCOCC5)CSc5ccccc5)c(S(=O)(=O)C(F)(F)F)c4)cc3)CC2)C1 [Navitoclax] + CCNC(=O)c1noc(-c2cc(C(C)C)c(O)cc2O)c1-c1ccc(CN2CCOCC2)cc1 [Luminespib] (partner 0.01 µM)	NCI-H1666	0.989
CC1(C)CCC(c2ccc(Cl)cc2)=C(CN2CCN(c3ccc(C(=O)NS(=O)(=O)c4ccc(N[C@H](CCN5CCOCC5)CSc5ccccc5)c(S(=O)(=O)C(F)(F)F)c4)cc3)CC2)C1 [Navitoclax] + Nc1nc2[nH]cc(CCc3ccc(C(=O)N[C@@H](CCC(=O)O)C(=O)O)cc3)c2c(=O)[nH]1 [Pemetrexed] (partner 0.2 µM)	NCI-H1666	0.836
